Where these numbers come from: ChEMBL document CHEMBL1126888

- TARGET_OF_ASSAY: UniProtKB P07384
- PROCEDURE_DETAILS: Inhibitory activity of alpha-keto esters towards calpain 1 at pH 8.0.
MEASUREMENT_LABEL: Ki (nM)

CC(C)CNC(=O)C(=O)C(Cc1ccccc1)NC(=O)C(CC(C)C)NC(=O)OCc1ccccc1 (centres undefined)    80
CCCCCCCCCNC(=O)C(=O)C(CC)NC(=O)C(CC(C)C)NC(=O)OCc1ccccc1 (centres undefined)    120
CCCCCCCNC(=O)C(=O)C(CC)NC(=O)C(CC(C)C)NC(=O)OCc1ccccc1 (centres undefined)    96

====

Form field: IC50 (one value per entry).
- Species on record: Rattus norvegicus
- PROCEDURE_DETAILS: Inhibitory potency against rat platelet membrane permeability at pH 7.35
- Type: functional

// worked examples, IC50 included
CCOC(=O)C(=O)C(CC)NC(=O)C(CC(C)C)NC(=O)C(c1ccccc1)c1ccccc1 (stereo not drawn)    > 100 µM
CCC(NC(=O)C(CC(C)C)NC(=O)OCc1ccccc1)C(=O)C(=O)NCC(C)c1ccccc1 (stereo not drawn)    27 µM

Attention now turns to another entry.
For record CC(C)CC(NC(=O)OCc1ccccc1)C(=O)NC(Cc1ccccc1)C(=O)C(=O)NCc1ccccc1 (stereo not drawn) the listed IC50 is > 300 µM
